The reported measurements were obtained from PubChem BioAssay AID624300.

# test: HeLa cell cytotoxicity, dose response, cytotoxicity control for MgcRacGAP inhibitor project (AID 624300)
# condition: CellTiter-Glo luminescence, 24 h; series mostly up to 100 µM
Hit rate of the full screen: of about 2,400 compounds, about 360 (15%) were called active. Not all results are given here. Entries with a potency or affinity are not part of this list.
endpoint-label: outcome

Reference set (5 entries):
[[record]]
input_smiles = "CCN(CC)S(=O)(=O)c1cccc(-c2n[nH]c(=S)n2/N=C/c2ccc(OC(F)F)cc2)c1"
endpoint_label = "outcome"
recorded_result = "inactive"

[[record]]
input_smiles = "Oc1ccc(Nc2ncnc3ccccc23)cc1"
endpoint_label = "outcome"
recorded_result = "inactive"

[[record]]
input_smiles = "NC(=S)N/N=C/c1cccc(O)c1O"
endpoint_label = "outcome"
recorded_result = "inactive"

[[record]]
input_smiles = "CCN(CC)CCC(=O)N1C/C(=C/c2ccccc2)C(=O)/C(=C\\c2ccccc2)C1"
endpoint_label = "outcome"
recorded_result = "inactive"

[[record]]
input_smiles = "Nc1cc(C(F)(F)F)ccc1N1CCOCC1"
endpoint_label = "outcome"
recorded_result = "inactive"


Request: Name the reported outcome value associated with the compound `O=C(CNc1ccc2c(c1)OCO2)N/N=C\c1ccccc1Cl`
Result: inactive

Request: Name the reported outcome value associated with the compound `CC(=O)c1c(Nc2ccc3c(c2)OCCO3)oc(C)cc1=O`
Result: inactive

Request: Name the reported outcome value associated with the compound `Nc1n[nH]c(=S)n1/N=C1/C(=O)Nc2ccccc21`
Result: inactive

Request: Name the reported outcome value associated with the compound `CCOc1cc(/C=C2\CN(CC)C/C(=C\c3ccc(O)c(OCC)c3)C2=O)ccc1O`
Result: inactive

Request: Name the reported outcome value associated with the compound `O=C(NCc1ccccc1)/C(=C\c1ccc(O)cc1)NC(=O)c1ccco1`
Result: inactive

Request: Name the reported outcome value associated with the compound `COc1ccc(/C=N/NC(=O)c2cc[n+]([O-])cc2)cc1O`
Result: inactive

---

# test: HeLa cell cytotoxicity, dose response, cytotoxicity control for MgcRacGAP inhibitor project (AID 624300)
# condition: CellTiter-Glo luminescence, 24 h; series mostly up to 100 µM
Screen size: about 2,400 compounds; about 360 (15%) were called active. These entries were drawn from the full list. Potency and affinity values are given separately.
endpoint-label: outcome

Reference set (5 entries):
[[record]]
compound = "CN(c1ccccc1)S(=O)(=O)c1cccc(C(=O)NCCc2ccc(O)c(O)c2)c1"
recorded_result = "inactive"

[[record]]
compound = "COc1cc2cc(NC(C)=O)cc(NCc3ccccc3)c2cc1OC"
recorded_result = "inactive"

[[record]]
compound = "COc1cc(-c2nc3cnccn3c2Nc2ccc(C)cc2)ccc1O"
recorded_result = "inactive"

[[record]]
compound = "COc1cc(/C=N/Nc2nc3ccccc3s2)ccc1O"
recorded_result = "inactive"

[[record]]
compound = "Cc1ccn2c(Nc3ccc4c(c3)OCO4)c(-c3ccc(O)cc3)nc2c1"
recorded_result = "inactive"


Request: Name the reported outcome value associated with the compound `O=C(Cn1cnc([N+](=O)[O-])n1)N/N=C/c1ccc(O)cc1O`
Result: inactive

Request: Name the reported outcome value associated with the compound `COc1ccc(CN2CCN(Cc3ccc4ccccc4c3)CC2)cc1OC`
Result: inactive

Request: Name the reported outcome value associated with the compound `Cn1c(=O)[nH]c(NCCc2ccc(O)cc2)c([N+](=O)[O-])c1=O`
Result: inactive

Request: Name the reported outcome value associated with the compound CC(=O)N1CCN(CC(O)COc2ccc(Br)cc2)CC1 (stereo unspecified)
Result: inactive

Request: Name the reported outcome value associated with the compound `Oc1cc(O)cc(-c2cc3ccc(O)cc3o2)c1`
Result: inactive

Request: Name the reported outcome value associated with the compound `CCN1CCN(CCOc2cccc(Cl)c2Cl)CC1`
Result: inactive
